Study System: AgLsb1
Method Summary: SPOT peptide array binding signal intensity (averaged, normalized) (arbitrary units (background-subtracted, floor 0; scale differs between SH3 domains)); higher = stronger binding of the SH3 domain to the peptide
Tick 1 (yes) if SPOT peptide array binding signal intensity is 2 or greater. Tick 0 (no) if SPOT peptide array binding signal intensity is less than 2.

Binder	Label
KKEKKPPKIPKKVYT	0 (no)
TPEIPPPLPPKIMVH	0 (no)
KKIRLIFTYPSTVGR	1 (yes)
RRRRRPHRIERPLSN	1 (yes)
ISNFVPPNLPMRRFK	1 (yes)
WRPRIVPILPYITRL	1 (yes)

Prompt line: # check: SPOT peptide array binding signal intensity of VRVKKRPLIRPLNSS is greater than or equal to 2
Response line: 1 (yes)

Prompt line: # check: SPOT peptide array binding signal intensity of MTKTPETSPPKRPMG is greater than or equal to 2
Response line: 0 (no)

Prompt line: # check: SPOT peptide array binding signal intensity of YSRKKLPVVLSKMTL is greater than or equal to 2
Response line: 1 (yes)

Prompt line: # check: SPOT peptide array binding signal intensity of TPTSGPPLLPPRNTM is greater than or equal to 2
Response line: 1 (yes)

Prompt line: # check: SPOT peptide array binding signal intensity of HKVLRPFLLRRLKKD is greater than or equal to 2
Response line: 0 (no)

Prompt line: # check: SPOT peptide array binding signal intensity of ILARAILTIPRVLDK is greater than or equal to 2
Response line: 0 (no)

Prompt line: # check: SPOT peptide array binding signal intensity of DGNEEKPLLPTRPNK is greater than or equal to 2
Response line: 1 (yes)

Recorded values, source the supplement of paper PMC4466140.
